Data origin: the RNAGym collection of RNA variant scans (doi:10.7554/elife.90254)

B1: LINE1-mini (parent)
chain: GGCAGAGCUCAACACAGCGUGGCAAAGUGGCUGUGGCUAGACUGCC

variants of: B1; assay: self-cleavage, relative activity (ratio to wild type); higher = more cleavage; in vitro, sequencing; the parent is a self-cleaving ribozyme
// not satisfied strictly below 0.07 in self-cleavage; satisfied otherwise

Worked cases, answers included:
| MUTATION LABEL | CLASSIFICATION |
| --- | --- |
| C13A G21A | satisfied |
| G2A C10U | satisfied |
| G5C A11G | not satisfied |
| A14G C37G | not satisfied |
| C10A G17A | not satisfied |
| C3A | satisfied |

Q: I'd appreciate it if you could say whether A14U G29U has self-cleavage at least equal to 0.07.
A: satisfied

Q: Next: G27C U28G
A: satisfied

Q: Next: G5C C10A
A: not satisfied

Q: Next: A25U G33C
A: not satisfied
